Where do these numbers come from? They come from patent US12133523B2.

test_method_notes: Ice recrystallization inhibition (IRI) splat assay, MLGS from DFOM images
test_parameters: ice recrystallized 30 minutes at -6 °C
result_type: IRI effect

molecule="CC(O)C(NC(=O)C(Cc1ccccc1)NC(=O)C(Cc1ccccc1)NC(=O)Cc1ccc2ccccc2c1)C(N)=O (stereo not drawn)" result="had IRI effects"
molecule="CC(O)C(NC(=O)C(Cc1ccccc1)NC(=O)C(CC1=CN=C2C=CC=CC12)NC(=O)OCC1c2ccccc2-c2ccccc21)C(N)=O (stereo not drawn)" result="had IRI effects"

---

test_method_notes: Critical micellar concentration from emission intensity versus concentration
Type: physicochemical
test_parameters: aqueous solution; compared to Fmoc-FFT
Residues, ends and D or L forms follow the SMILES beside them. *: point of attachment. Fmoc = O=C(OCC1c2ccccc2-c2ccccc21)*
result_type: CMC (µM)
The reply should be a number in µM, with the unit left off.

// CMC value for CC(O)C(NC(=O)C(CCC(=O)O)NC(=O)C(Cc1ccccc1)NC(=O)C(CCC(=O)O)NC(=O)C(Cc1ccccc1)NC(=O)OCC1c2ccccc2-c2ccccc21)C(N)=O (stereo not shown) [Fmoc-FEFET] (Fmoc-FEFET-NH2; configuration not given here) : 22.8
